src = the supplement of paper PMC10307832

System: SK-LU-1
assay.info: relative viability (nuclei count vs DMSO), 5 days (fraction); higher = more cells survive
particulars: first compound 0.03162 µM
recorded.endpoint: relative viability
# output: bare number, no unit

Please fill in: relative viability reported for CC(C)Oc1cc(Nc2nc(N[C@@H](C)c3ccc(F)cn3)ncc2Cl)n[nH]1 [AZ23] + CC(=O)c1c(C)c2cnc(Nc3ccc(N4CCNCC4)cn3)nc2n(C2CCCC2)c1=O [Palbociclib] (partner 0.5 µM) = 0.416

Please fill in: relative viability reported for CC(C)Oc1cc(Nc2nc(N[C@@H](C)c3ccc(F)cn3)ncc2Cl)n[nH]1 [AZ23] + Cc1nc(Nc2ncc(C(=O)Nc3c(C)cccc3Cl)s2)cc(N2CCN(CCO)CC2)n1 [Dasatinib] (partner 0.075 µM) = 0.193

Please fill in: relative viability reported for CC(C)Oc1cc(Nc2nc(N[C@@H](C)c3ccc(F)cn3)ncc2Cl)n[nH]1 [AZ23] + O=C(CCCCCCC(=O)Nc1ccccc1)NO [Vorinostat] (partner 1 µM) = 0.801

Please fill in: relative viability reported for CC(C)Oc1cc(Nc2nc(N[C@@H](C)c3ccc(F)cn3)ncc2Cl)n[nH]1 [AZ23] + Cc1cc(Nc2cc(N3CCN(C)CC3)nc(Sc3ccc(NC(=O)C4CC4)cc3)n2)n[nH]1 [Tozasertib] (partner 0.1 µM) = 0.382

====

Provide the recorded relative viability for the entries that follow.
System: EMC-BAC-2
assay.info: relative viability (nuclei count vs DMSO), 5 days (fraction); higher = more cells survive
particulars: first compound 0.8 µM

Please fill in: relative viability reported for CCCCCCCCCCCC1=C(O)C(=O)C=C(O)C1=O [Embelin] + COc1cccc2cc(-c3nc([C@H]4CC[C@H](C(=O)O)CC4)n4ncnc(N)c34)[nH]c12 [OSI-027] (partner 0.5 µM) = 0.47

Please fill in: relative viability reported for CCCCCCCCCCCC1=C(O)C(=O)C=C(O)C1=O [Embelin] + O=C(c1cc(Cc2n[nH]c(=O)c3ccccc23)ccc1F)N1CCN(C(=O)C2CC2)CC1 [Olaparib] (partner 8 µM) = 0.378

Please fill in: relative viability reported for CCCCCCCCCCCC1=C(O)C(=O)C=C(O)C1=O [Embelin] + Nc1ncn([C@H]2C[C@H](O)[C@@H](CO)O2)c(=O)n1 [Decitabine] (partner 2 µM) = 1.01

Please fill in: relative viability reported for CCCCCCCCCCCC1=C(O)C(=O)C=C(O)C1=O [Embelin] + Nc1nc2[nH]cc(CCc3ccc(C(=O)N[C@@H](CCC(=O)O)C(=O)O)cc3)c2c(=O)[nH]1 [Pemetrexed] (partner 0.2 µM) = 0.53

====

System: NCI-H322M
assay.info: relative viability (nuclei count vs DMSO), 5 days (fraction); higher = more cells survive
particulars: first compound 0.1265 µM
recorded.endpoint: relative viability

Please fill in: relative viability reported for Clc1ccc(Nc2nnc(Cc3ccncc3)c3ccccc23)cc1 [Vatalanib] + COc1cc2c(Oc3ccc(NC(=O)C4(C(=O)Nc5ccc(F)cc5)CC4)cc3F)ccnc2cc1OCCCN1CCOCC1 [Foretinib] (partner 0.25 µM) = 0.974

Please fill in: relative viability reported for COc1cc(N2CCC(C(N)=O)CC2)ccc1Nc1nc(N)c(Cl)c(Nc2ccccc2S(=O)(=O)C(C)C)n1 [HG-5-88-01] + COc1cc2c(Oc3ccc(NC(=O)C4(C(=O)Nc5ccc(F)cc5)CC4)cc3F)ccnc2cc1OCCCN1CCOCC1 [Foretinib] (partner 0.25 µM) = 0.782

Please fill in: relative viability reported for C[C@@H]1CN(CC(=O)Nc2ccc3c(c2)Cc2cccc(-c4cc(=O)cc(N5CCOCC5)o4)c2S3)C[C@H](C)O1 + CC(=O)c1c(C)c2cnc(Nc3ccc(N4CCNCC4)cn3)nc2n(C2CCCC2)c1=O [Palbociclib] (partner 0.5 µM) = 0.475

Please fill in: relative viability reported for COc1cc(N2CCC(C(N)=O)CC2)ccc1Nc1nc(N)c(Cl)c(Nc2ccccc2S(=O)(=O)C(C)C)n1 [HG-5-88-01] + CCNC(=O)c1noc(-c2cc(C(C)C)c(O)cc2O)c1-c1ccc(CN2CCOCC2)cc1 [Luminespib] (partner 0.01 µM) = 0.835

Please fill in: relative viability reported for C[C@@H]1CN(CC(=O)Nc2ccc3c(c2)Cc2cccc(-c4cc(=O)cc(N5CCOCC5)o4)c2S3)C[C@H](C)O1 + CS(=O)(=O)CCNCc1ccc(-c2ccc3ncnc(Nc4ccc(OCc5cccc(F)c5)c(Cl)c4)c3c2)o1 [Lapatinib] (partner 2 µM) = 0.587

Please fill in: relative viability reported for Clc1ccc(Nc2nnc(Cc3ccncc3)c3ccccc23)cc1 [Vatalanib] + O=C(c1cc(Cc2n[nH]c(=O)c3ccccc23)ccc1F)N1CCN(C(=O)C2CC2)CC1 [Olaparib] (partner 8 µM) = 0.662
